# target-entity: ALK (Homo sapiens)
# Construct: host or cells: baculovirus expression system
# Sequence (Q9UM73 19-1620): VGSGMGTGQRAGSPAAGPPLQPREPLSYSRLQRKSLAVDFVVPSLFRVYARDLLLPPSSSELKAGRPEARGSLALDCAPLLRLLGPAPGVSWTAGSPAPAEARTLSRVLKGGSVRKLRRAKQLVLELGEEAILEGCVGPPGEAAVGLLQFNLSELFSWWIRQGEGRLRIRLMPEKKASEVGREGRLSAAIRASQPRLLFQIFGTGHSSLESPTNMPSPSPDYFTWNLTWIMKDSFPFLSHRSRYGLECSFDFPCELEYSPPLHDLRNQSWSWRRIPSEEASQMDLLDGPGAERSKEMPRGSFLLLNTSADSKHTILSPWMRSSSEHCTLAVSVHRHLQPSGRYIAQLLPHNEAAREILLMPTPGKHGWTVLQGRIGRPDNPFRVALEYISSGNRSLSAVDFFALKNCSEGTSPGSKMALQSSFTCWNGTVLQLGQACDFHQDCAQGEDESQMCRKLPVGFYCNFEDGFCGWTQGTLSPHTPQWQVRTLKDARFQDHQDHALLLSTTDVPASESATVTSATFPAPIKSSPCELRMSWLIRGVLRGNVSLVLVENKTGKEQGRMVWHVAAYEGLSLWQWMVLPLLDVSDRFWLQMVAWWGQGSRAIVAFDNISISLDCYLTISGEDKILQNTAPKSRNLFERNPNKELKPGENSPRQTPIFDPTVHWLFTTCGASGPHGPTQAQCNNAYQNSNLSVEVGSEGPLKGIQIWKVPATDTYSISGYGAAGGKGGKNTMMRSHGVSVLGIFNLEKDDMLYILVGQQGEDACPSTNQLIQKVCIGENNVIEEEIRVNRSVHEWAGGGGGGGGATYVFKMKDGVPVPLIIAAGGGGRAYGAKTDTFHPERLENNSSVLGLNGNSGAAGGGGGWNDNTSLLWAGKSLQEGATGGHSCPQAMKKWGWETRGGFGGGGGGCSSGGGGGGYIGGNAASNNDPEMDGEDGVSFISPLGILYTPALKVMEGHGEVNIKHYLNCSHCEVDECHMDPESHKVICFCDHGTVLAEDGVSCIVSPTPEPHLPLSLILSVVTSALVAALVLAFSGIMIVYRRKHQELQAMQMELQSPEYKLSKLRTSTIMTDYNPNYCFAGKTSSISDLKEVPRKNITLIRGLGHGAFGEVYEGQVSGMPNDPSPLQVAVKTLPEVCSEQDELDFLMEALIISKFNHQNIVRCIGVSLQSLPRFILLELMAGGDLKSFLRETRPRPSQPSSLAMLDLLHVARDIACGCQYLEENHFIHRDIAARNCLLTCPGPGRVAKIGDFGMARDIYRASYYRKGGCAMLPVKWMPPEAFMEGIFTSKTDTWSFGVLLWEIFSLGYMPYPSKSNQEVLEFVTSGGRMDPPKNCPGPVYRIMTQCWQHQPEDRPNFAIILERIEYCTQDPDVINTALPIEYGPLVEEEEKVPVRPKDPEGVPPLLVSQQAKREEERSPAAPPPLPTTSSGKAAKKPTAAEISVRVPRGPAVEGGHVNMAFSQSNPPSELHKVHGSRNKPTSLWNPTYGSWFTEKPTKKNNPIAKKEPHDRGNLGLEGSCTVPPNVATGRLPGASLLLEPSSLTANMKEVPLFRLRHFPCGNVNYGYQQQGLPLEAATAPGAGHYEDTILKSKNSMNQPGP
# protocol-details: ALK Kinase Assay (ELISA/TRF, PLC-γ substrate)
# Type: biochemical
# measurement-parameters: ALK kinase inhibition, 1 μM ATP; read-out: ALK Potency
measure: IC50

Solved entries:
INSERT INTO results (compound, measure, recorded_result) VALUES
  ('COc1cc(C2CCN(C(C)C(N)=O)CC2)ccc1Nc1ncc2ccc(-c3ccccc3OC)n2n1 (stereo not shown)', 'IC50', '< 0.1 µM'),
  ('CN(c1ccccc1-c1ccc2cnc(Nc3ccc4c(cnn4CCN4CCOCC4)c3)nn12)S(C)(=O)=O', 'IC50', '0.1 to 1 µM'),
  ('c1cncc(-c2ccc3cnc(Nc4cnn(CCN5CCOCC5)c4)nn23)c1', 'IC50', '> 10 µM');

Please examine the following record next.
Enquiry: State, in one line, measured IC50 of CN1CCCC1COc1cccc(Nc2ncc3ccc(-c4cccc(S(=O)(=O)NC(C)(C)C)c4)n3n2)c1 (stereo not shown)
Return: < 0.1 µM
